Entries and their Ki
Molecular target: T1, recombinant human melanocortin-1 receptor (hMCR-1a) in membrane homogenates of HEK-293 cells (human, UniProt Q01726 1-317)
T1 construct: whole, on cells; Used as membrane homogenates, not intact cells; also called hMCR-la; MC-1
T1 sequence (Q01726 whole entry): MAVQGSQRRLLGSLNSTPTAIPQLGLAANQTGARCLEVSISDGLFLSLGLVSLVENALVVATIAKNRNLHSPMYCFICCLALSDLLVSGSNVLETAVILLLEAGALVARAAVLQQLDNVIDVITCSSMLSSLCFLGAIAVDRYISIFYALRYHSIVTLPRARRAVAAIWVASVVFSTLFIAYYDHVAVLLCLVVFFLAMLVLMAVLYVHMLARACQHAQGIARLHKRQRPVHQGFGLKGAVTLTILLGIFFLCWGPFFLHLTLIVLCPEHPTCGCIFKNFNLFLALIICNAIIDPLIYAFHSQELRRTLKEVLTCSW
Assay: competitive inhibition of [I125]-NDP-alpha-MSH, hMCR-1 HEK-293 membranes
[ ]: non-standard residue; d: D form. Nle = CCCC[C@H](N)C(=O)O
// return numeric value only (unit: nM, not printed)

Recorded results for 5 binders are shown here.
Prompt: Give me measured Ki, please, for this binder: Ac-[Nle]H[dF]RAW-NH2 (SMILES CCCC[C@H](NC(C)=O)C(=O)N[C@@H](Cc1c[nH]cn1)C(=O)N[C@H](Cc1ccccc1)C(=O)N[C@@H](CCCNC(=N)N)C(=O)N[C@@H](C)C(=O)N[C@@H](Cc1c[nH]c2ccccc12)C(N)=O, synthetic linear peptide) [Ac-Nle-His-D-Phe-Arg-Ala-Trp-NH2]
Response: 35

Prompt: Give me measured Ki, please, for this binder: Ac-[Nle]AA[dF]RAW-NH2 (SMILES CCCC[C@H](NC(C)=O)C(=O)N[C@@H](C)C(=O)N[C@@H](C)C(=O)N[C@H](Cc1ccccc1)C(=O)N[C@@H](CCCNC(=N)N)C(=O)N[C@@H](C)C(=O)N[C@@H](Cc1c[nH]c2ccccc12)C(N)=O, synthetic linear peptide) [Ac-Nle-Ala-Ala-D-Phe-Arg-Ala-Trp-NH2]
Response: 195

Prompt: Give me measured Ki, please, for this binder: Ac-[Nle]AF[dF]RAW-NH2 (SMILES CCCC[C@H](NC(C)=O)C(=O)N[C@@H](C)C(=O)N[C@@H](Cc1ccccc1)C(=O)N[C@H](Cc1ccccc1)C(=O)N[C@@H](CCCNC(=N)N)C(=O)N[C@@H](C)C(=O)N[C@@H](Cc1c[nH]c2ccccc12)C(N)=O, synthetic linear peptide) [Ac-Nle-Ala-Phe-D-Phe-Arg-Ala-Trp-NH2]
Response: 20

Prompt: Give me measured Ki, please, for this binder: Ac-[Nle]AH[dF]RGW-NH2 (SMILES CCCC[C@H](NC(C)=O)C(=O)N[C@@H](C)C(=O)N[C@@H](Cc1c[nH]cn1)C(=O)N[C@H](Cc1ccccc1)C(=O)N[C@@H](CCCNC(=N)N)C(=O)NCC(=O)N[C@@H](Cc1c[nH]c2ccccc12)C(N)=O, synthetic linear peptide) [Ac-Nle-Ala-His-D-Phe-Arg-Gly-Trp-NH2]
Response: 0.8

Prompt: Give me measured Ki, please, for this binder: Ac-[Nle]AR[dF]RAW-NH2 (SMILES CCCC[C@H](NC(C)=O)C(=O)N[C@@H](C)C(=O)N[C@@H](CCCNC(=N)N)C(=O)N[C@H](Cc1ccccc1)C(=O)N[C@@H](CCCNC(=N)N)C(=O)N[C@@H](C)C(=O)N[C@@H](Cc1c[nH]c2ccccc12)C(N)=O, synthetic linear peptide) [Ac-Nle-Ala-Arg-D-Phe-Arg-Ala-Trp-NH2]
Response: 0.45

Kindly consider the entry below.
Prompt: Give me measured Ki, please, for this binder: Ac-[Nle]AH[dF]RPW-NH2 (SMILES CCCC[C@H](NC(C)=O)C(=O)N[C@@H](C)C(=O)N[C@@H](Cc1c[nH]cn1)C(=O)N[C@H](Cc1ccccc1)C(=O)N[C@@H](CCCNC(=N)N)C(=O)N1CCC[C@H]1C(=O)N[C@@H](Cc1c[nH]c2ccccc12)C(N)=O, synthetic linear peptide) [Ac-Nle-Ala-His-D-Phe-Arg-Pro-Trp-NH2]
Response: 185
